These data points were gathered from the supplement of paper PMC9170038.

- Test system: MS2 coat protein
- Assay: apparent KD of MS2 coat protein; designed switch direction (-1 OFF switch, 1 ON switch): -1; higher = weaker reporter binding
- Experimental context: Eterna round: R95; input ligand: none
Measured apparent KD of MS2 coat protein accompanies every entry in the list below.
Give just the numeric value; nM need not be written.

Before answering, review these 3 worked examples.
Sequence	Study system	Unit abbrev	apparent KD of MS2 coat protein
AAAAGCUCAGUCAGGAUAUGCAUUUGCACCGGCGAGCAGAAGGGACAUGAGGAUCACCCAUGUACGCGGCAGGG [Laaraor] (puzzle: Brourd's mod of Exclusion 4)	MS2 coat protein	nM	59.9
AUAGCUCGUGUUAGGAUAUCCGCAUAUUUUACAUAGGAGAAGGAACAUGAGGAUCACCCAUGUAAUAGAAAAGA [Maenri] (puzzle: Brourd's mod of Exclusion 4)	MS2 coat protein	nM	74.7
AAAGAAGAGAGAAAAUAACACAUGAGGAUCACCCAUGUGAGAAGAUGAGGGUGAUACAGGCUAUAUGCUCGUCUUAU (puzzle: Sensor v3, turn-off variant 1)	MS2 coat protein	nM	104

Known value: MS2 coat protein apparent KD of MS2 coat protein of the sequence CAUGAUCUUCGGAUCAUGUACAUGAGGAUCACCCAUGUGACGAGUAGAUCCUCAAACAAGCUUUUUGCUCGUCUUAU [Sensor v3 - Turn-off variant 1 - 19] (puzzle: Sensor v3, turn-off variant 1) equals 64.5

// assay MS2 coat protein, entry ACAAGCUUUUUGUUCGUCUUAUACACUCCUAAGAGGACAACAUGAGGAUCACCCAUGUAACAAAGACGAACUCAUGU [Sesor Array 10 - Jieux - Sensor v3, turn-off variant 2] (puzzle: Sensor v3, turn-off variant 2) , apparent KD of MS2 coat protein value = 11.4

Observed apparent KD of MS2 coat protein, MS2 coat protein, GGUUGGCGAGGAUAUACAUGAGGAUCACCCAUGUGAGAGAAGAAAGUGAGAACGAAAAGUAGAAGGCGCUGACG [salish99_ex3_r3_060] (puzzle: Exclusion 3) : 90.2

Summary: GAAAACGUAGGAUAUACGAAAAAAAAGGGUAGAAAAAAAACACAUGAGGAUCACCCAUGUAGAAGGACGAAAAG [salish99_ex2_r3_094] (puzzle: Exclusion 2) , MS2 coat protein, apparent KD of MS2 coat protein = 55.4

Summary line: CCUAGACAUGAGGAUCACCCAUGUGAGGAUAUGAUGCGAAUAAAGAAAGAAGAAAGCAUCAGAAGGCACAUAUG [Fiskers Ex 1 - 2] (puzzle: Exclusion 1) , MS2 coat protein, reported apparent KD of MS2 coat protein = 49.4

GET /values?item= AAGUACCGUCACGAAAGUGAUGGUACAACAAGCAAAUGUACAUGAGGAUCACCCAUGUCCUCAAUUGCUCGUCUUAU [Sensor 3 - 57] (puzzle: Sensor v3, turn-off variant 2) &system= MS2 coat protein returns apparent KD of MS2 coat protein: 92.8

The measured apparent KD of MS2 coat protein that CUCCUCAUGGCGCCUAAACACAUGAGGAUCACCCAUGUACAGGCCUUUUGCCGUCUUAUAAUAAAACCGAGGAUGCG [Lainxezabe] (puzzle: Sensor v3, turn-off variant 1) showed for MS2 coat protein is 26.8
